Each entry below carries its reported EC50.
target: Luciferin 4-monooxygenase (Photinus pyralis); assay: inhibition of purified Photinus pyralis luciferase – biochemical, luminescence, dose response (AID 1891)
Sequence (P08659 whole entry): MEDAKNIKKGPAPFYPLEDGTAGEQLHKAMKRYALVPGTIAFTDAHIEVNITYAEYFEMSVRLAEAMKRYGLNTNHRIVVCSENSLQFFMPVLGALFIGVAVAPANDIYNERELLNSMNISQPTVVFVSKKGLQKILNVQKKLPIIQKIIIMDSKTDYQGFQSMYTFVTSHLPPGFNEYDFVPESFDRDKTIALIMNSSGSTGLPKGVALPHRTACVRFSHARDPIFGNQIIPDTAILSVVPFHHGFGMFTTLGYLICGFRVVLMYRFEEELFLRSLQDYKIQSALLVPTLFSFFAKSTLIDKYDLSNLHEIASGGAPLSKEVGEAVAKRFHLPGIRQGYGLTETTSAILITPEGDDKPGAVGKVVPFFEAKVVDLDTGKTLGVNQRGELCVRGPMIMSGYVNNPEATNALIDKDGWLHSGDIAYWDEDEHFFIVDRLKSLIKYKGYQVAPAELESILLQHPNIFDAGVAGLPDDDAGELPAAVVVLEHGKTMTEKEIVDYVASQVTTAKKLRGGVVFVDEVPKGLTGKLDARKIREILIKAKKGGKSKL
Activity calls are given as the source filed them. No stated cut-off is given here; in the data, actives have a measured EC50 and inactives only a lower limit.

Answered examples (8):
Cc1cc(C)c2c(c1)cc(C)c1nnc(SCC(=O)Nc3ccccc3N3CCOCC3)n12    > 112 µM (not active)
CCC(C)SCc1nc2ccccc2[nH]1 (stereo not drawn)    > 112 µM (not active)
CCc1cccc(NC(=O)CN(C)S(=O)(=O)c2c[nH]cn2)c1    > 112 µM (not active)
CCOc1ccc(Nc2cc3n(c(=O)n2)CCc2cc(OC)c(OC)cc2-3)cc1    > 112 µM (not active)
O=C(Nc1ccccc1F)c1cnc(O)nc1O    > 112 µM (not active)
O=C1NC(=S)N=C1c1c(O)[nH]c2ccccc12    > 112 µM (not active)
COc1ccc(CNC(=O)c2ccccc2NC(=O)C2=CSCCO2)c(OC)c1    > 112 µM (not active)
O=C(c1ccc(S(=O)(=O)N2CCOCC2)cc1)N1CCN(c2ccc(F)cc2)CC1    > 112 µM (not active)

Input: Supply reported EC50 belonging to this compound: CN1C2CCC1CC(NC(=O)CSc1ccc(Cl)cc1)C2 (stereo not drawn)
Output: > 112 µM (not active)

Input: Let me know recorded EC50 for COc1ccc(N/C=C/C(=O)c2ccccc2)cc1 , thanks.
Output: 0.863 µM (active)

Input: Please indicate EC50 recorded for COc1ccc(CCN2CC(C(=O)NCCc3ccccc3C(F)(F)F)CCC2=O)cc1 (stereo not drawn)
Output: > 112 µM (not active)

Input: Given the compound Oc1ccc(/C=N/Nc2nccnc2Cl)cc1 , write its reported EC50.
Output: 1.12 µM (active)

Input: State its EC50 for this compound: C=C[C@@]1(C)CC(=O)[C@]2(O)[C@@]3(C)[C@@H](O)CCC(C)(C)[C@@H]3[C@H](OC(C)=O)[C@H](O)[C@@]2(C)O1
Output: > 112 µM (not active)

Every entry's value here was drawn from ChEMBL document CHEMBL1201862.
